glass transition temperature strictly less than 300 °C = label 1. Otherwise label 0.

[[record]]
compound = "*c1ccc(CC(=O)Nc2ccc(S(=O)(=O)c3ccc(NC(=O)Cc4ccc(-c5sc(*)c(-c6ccccc6)c5-c5ccccc5)cc4)cc3)cc2)cc1 (repeat unit)"
qualitative_label = "label 1"

[[record]]
compound = "*Oc1cc(Oc2ccc(C(C)(C)c3ccc(*)cc3)cc2)cc([N+](=O)[O-])c1 (repeat unit)"
qualitative_label = "label 1"

[[record]]
compound = "*C(=O)Nc1ccc(S(=O)(=O)c2ccc(NC(=O)c3ccc4c(c3)C(=O)N(c3cc(-c5nc6ccccc6o5)cc(N5C(=O)c6ccc(*)cc6C5=O)c3)C4=O)cc2)cc1 (repeat unit)"
qualitative_label = "label 0"

[[record]]
compound = "*c1ccc(-c2nc3cc(-c4ccc5nc(*)c(-c6ccccc6)nc5c4)ccc3nc2-c2ccccc2)cc1 (repeat unit)"
qualitative_label = "label 0"

[[record]]
compound = "*CCCCCCCCC(c1ccc(O)cc1)C(*)c1ccc(O)cc1C (repeat unit)"
qualitative_label = "label 1"

[[record]]
compound = "*CC(CS(=O)(=O)CC)O* (repeat unit)"
qualitative_label = "label 1"

[[record]]
compound = "*c1ccc(O)c(N2C(=O)c3ccc(Oc4ccc(C(C)(C)c5ccc(Oc6ccc7c(c6)C(=O)N(*)C7=O)cc5)cc4)cc3C2=O)c1 (repeat unit)"
qualitative_label = "label 1"


----------
Property: glass transition temperature; scope: individual compounds
Property Name: glass transition temperature (°C)

[[record]]
compound = "*Oc1ccc(CC(NC(=O)CCc2ccc(OC(=O)CCCCCCC(*)=O)cc2)C(=O)OCC)cc1 (repeat unit)"
property_name = "glass transition temperature"
measured_result = 50.00

[[record]]
compound = "*CC(*)CC(C)(C)C (repeat unit)"
property_name = "glass transition temperature"
measured_result = 190.00

[[record]]
compound = "*OP(=O)(Oc1ccc(Br)cc1)Oc1c(Br)cc(C(c2cc(Br)c(*)c(Br)c2)(C(F)(F)F)C(F)(F)F)cc1Br (repeat unit)"
property_name = "glass transition temperature"
measured_result = 152.00

[[record]]
compound = "*c1ccc(Oc2ccc(-c3cnc4cc(Oc5ccc6nc(*)cnc6c5)ccc4n3)cc2)cc1 (repeat unit)"
property_name = "glass transition temperature"
measured_result = 382.00

[[record]]
compound = "*Oc1ccc(C2(c3ccc(OC(*)=O)c(C)c3)CC3CC2C2CCCC32)cc1C (repeat unit)"
property_name = "glass transition temperature"
measured_result = 217.00

[[record]]
compound = "*CCCCCC(c1ccc(O)cc1)C(*)c1ccc(O)cc1C (repeat unit)"
property_name = "glass transition temperature"
measured_result = 16.00

[[record]]
compound = "*O[Si](*)(C)CCCCCCCCCCCOc1ccc(/C=C/c2ccc(C#N)cc2)cc1 (repeat unit)"
property_name = "glass transition temperature"
measured_result = -55.00

[[record]]
compound = "*c1ccc(Oc2ccc(C(=O)c3cccc(C(=O)c4ccc(Oc5ccc(-c6nc(-c7cccc(-c8nc(*)c(-c9ccccc9)[nH]8)c7)[nH]c6-c6ccccc6)cc5)cc4)c3)cc2)cc1 (repeat unit)"
property_name = "glass transition temperature"
measured_result = 256.50


----------
// class assignment uses glass transition temperature with these ranges: low class (below 100 °C), middle class (100 °C to below 200 °C), high class (200 °C or more)

[[record]]
molecule = "*CCN(CCN1C(=O)c2ccc(C(c3ccc4c(c3)C(=O)N(*)C4=O)(C(F)(F)F)C(F)(F)F)cc2C1=O)c1ccc(/N=N/c2ccc(C=O)cc2)cc1 (repeat unit)"
qualitative_label = "middle class"

[[record]]
molecule = "*Oc1ccc(C(c2ccc(OC(*)=S)cc2)C(CC)CC)cc1 (repeat unit)"
qualitative_label = "middle class"

[[record]]
molecule = "*CCCC(C)(C)CNC(=O)CCCCCC(=O)N* (repeat unit)"
qualitative_label = "low class"

[[record]]
molecule = "*c1ccc(-c2ccc(-c3ccc([Si](C)(C)[Si](*)(C)C)s3)s2)s1 (repeat unit)"
qualitative_label = "low class"

[[record]]
molecule = "*C(=O)c1ccc2c(c1)C(=O)N(c1ccc(Oc3c(C)cc(Cc4cc(C)c(Oc5ccc(N6C(=O)c7ccc(*)cc7C6=O)cc5)c(C)c4)cc3C)cc1)C2=O (repeat unit)"
qualitative_label = "high class"

[[record]]
molecule = "*c1ccc(Oc2ccc(N3C(=O)c4ccc(Oc5cccc6c(Oc7ccc8c(c7)C(=O)N(*)C8=O)cccc56)cc4C3=O)cc2)cc1 (repeat unit)"
qualitative_label = "high class"

[[record]]
molecule = "*CCCCCCCCCCCC(=O)Oc1ccc(-c2ccc(OC(=O)c3ccc4c(c3)C(=O)N(*)C4=O)cc2)cc1 (repeat unit)"
qualitative_label = "low class"

[[record]]
molecule = "*c1ccc(Oc2ccc(-n3nccc3-c3cccc(-c4ccnn4*)c3)cc2)cc1 (repeat unit)"
qualitative_label = "high class"

[[record]]
molecule = "*OC(C)(CC(*)=O)C(F)(F)F (repeat unit)"
qualitative_label = "low class"

[[record]]
molecule = "*CCN(CCOC(=O)Nc1ccc(C)c(NC(=O)O*)c1)c1ccc(/N=N/c2ccc(-c3nc4ccccc4o3)cc2)cc1 (repeat unit)"
qualitative_label = "middle class"

[[record]]
molecule = "*COC(=O)c1ccc(/C(C#N)=C(\\c2ccc(OC)cc2)N2CCCC(*)C2)cc1 (repeat unit)"
qualitative_label = "middle class"

[[record]]
molecule = "*Oc1c(F)c(F)c(S(=O)(=O)c2c(F)c(F)c(Oc3ccc(C(c4ccc(*)cc4)(C(F)(F)F)C(F)(F)F)cc3)c(F)c2F)c(F)c1F (repeat unit)"
qualitative_label = "middle class"

[[record]]
molecule = "*Oc1ccc(NC(=C(C#N)C#N)c2ccc(C(Nc3ccc(*)cc3)=C(C#N)C#N)cc2)cc1 (repeat unit)"
qualitative_label = "high class"

[[record]]
molecule = "*C(=O)Nc1ccc(C(=O)Nc2ccc(NC(=O)c3ccc4[nH]c(-c5cccc(-c6nc7cc(*)ccc7[nH]6)c5)nc4c3)cc2)cc1 (repeat unit)"
qualitative_label = "high class"

